ASSAY: protein stability index of a GFP-peptide fusion (yeast GPS) (PSI 1-4); higher = more stable; sorted into four equal gates, so the index is relative within each strain
TEST_SETTINGS: pdr5∆
Give yes when the value for protein stability index is at least 3. Give no when it is less.

CHAIN_SEQUENCE	ASSIGNED_CATEGORY
KGQGPFTLTYDIIETFS [YMR129W/POM152]	no
VKIMRDPAKSRTGPKAL [RPS3]	yes
IPISSETTIDDLPISST [SMC1]	no
ESESERKYDLFQNLELE [SMC2]	yes
KEAAAIAEGKSKQDASP [RPL8B]	yes
LREHFKNTEEGKALVHH [QCR6]	yes
IKKPTSAVVSSNASRRK [RPN4]	no
TLFCCLLRSRLATRRVL [RPO21]	no
DLWNNFGNIMDNLLEMS [RRP6]	no
DPFSIYGFSNKEYISRL [SNF5]	no

* * *

Each item that follows carries a reported protein stability index.
ASSAY: protein stability index of a GFP-peptide fusion (yeast GPS) (PSI 1-4); higher = more stable; sorted into four equal gates, so the index is relative within each strain
TEST_SETTINGS: san1∆

CHAIN_SEQUENCE	protein stability index
KKRSHHGKASRQQYYSG [SNF6]	2.92
DDDDYNAEKYFNNGDDD [RPC31]	3.06
ETVKLPRVSNQSNEDTF [RRI2]	2.94
NQVMMDRKIQGWLGALT [ARP7]	3

* * *

ASSAY: protein stability index of a GFP-peptide fusion (yeast GPS) (PSI 1-4); higher = more stable; sorted into four equal gates, so the index is relative within each strain
TEST_SETTINGS: pdr5∆

CHAIN_SEQUENCE	protein stability index
RDHKSYSQSPPRSPGRS [SMC4]	2.98
YWYFLQKLHKVKKASGE [RPL20A]	2.86
NKVSNTVSPTQDKDAIR [SIR2]	3.26
VSSTIPRETIPFLHLRK [FAS2]	2.35
LFGEKSILGKFCPIVEE [YCS4]	1.74
ESRSFSPIPFPPLTYKN [PRP8]	3
FKQAKERVMKNKVEENL [RPT2]	3.27
STSNTPSPPNVIITDGT [YDL088C/ASM4]	2.95
EKVFNAYPAAREQFLNA [FAS1]	3.19
SKATGAPSANQGDEALS [RTT102]	3.32
KNDDNSCRNPEHTDVID [YIL149C/MLP2]	2.75
SLLSLVGHLSILPQQSK [ECM29]	2
GGESMEGPKKCIQVNCL [SNM1]	1.95
IIDRGRNVLSASLDGTI [RPN14]	2.52
MKYLAAYLLLVQGGNAA [RPP2B]	1.78
IPYAAKLLFQELMAMNI [RPB2]	1.66
STRKTPNGEGSKTWETY [RPS20]	3.36
GRLDRKIEFPLPSEDSR [RPT5]	2.91
LPRYQELTKEEAMYKLQ [SMC3]	3.18
KFTIEPGVLPVGIDTHT [SNF2]	2.61
RLELAGQLISLLFEDLF [RET1]	2.9
MSLSNKTVKELRQLLKE [RRI1]	1.42
HWMGSSVSGSPRPSYSS [YMR129W/POM152]	3.11
GLSQTEAFGNIKIDAKP [MCD1]	2.87
RNNVANKQPRNESFNRR [YAR002W/NUP60]	3.41
FILLDRLRQFNLQPIST [SMC4]	1.56
VQKRDEVKEQLGILKKK [SMC4]	3.01
LNVGNVLPLGSVPEGTI [RPL2A]	3.15
RLQAANSMEYTGKITKM [CDC53]	2.62
EDRPPEYWAQRKKKFVL [ISW2]	3.13
EEQKIVKKVVKEQTEAA [RPL34A]	3.23
GRNGSNGNDESSEYETI [NUT1]	3.34
NNEMKSLQRSKSSFVKE [SMC1]	3.25

* * *

ASSAY: protein stability index of a GFP-peptide fusion (yeast GPS) (PSI 1-4); higher = more stable; sorted into four equal gates, so the index is relative within each strain
TEST_SETTINGS: san1∆

CHAIN_SEQUENCE	protein stability index
LRSIYHQFHDILEEKTD [NSL1]	2.18
LSTLRMEADPSLHPLFE [RPN9]	2.18
LAPNMQLNGNETFSTSA [SNF2]	3.29
IDLDNDEDDDEDVTDQE [DLS1]	2.86
APKIHILDPSTEYCVGD [YMR129W/POM152]	2.97
HCDKCSVVLTLQAFGES [RPB3]	2.47
RESLIMLLEEQLEYKRG [MED7]	2.42
GKGESVIFNDNVTETYS [SIR3]	2.88
FHSEPDRDENWIHVSCL [LIN1]	3.07
LAVTNLLIISCIIFITF [YML031W/NDC1]	1.42
MKLVPSIPPATIETFNE [RPB5]	2.11

* * *

Form field: protein stability index (one value per entry).
ASSAY: protein stability index of a GFP-peptide fusion (yeast GPS) (PSI 1-4); higher = more stable; sorted into four equal gates, so the index is relative within each strain
TEST_SETTINGS: pdr5∆

CHAIN_SEQUENCE	protein stability index
NSNSNSGSLFGSNNAQT [YGL172W/NUP49]	3.24
DGKKHSVFYTILRDYGP [RPO31]	2.95
SLEMVPKDTSAATMTSA [RGR1]	2.77
GYLFKVSALDKCIKYSE [ECM29]	2.11
LERTAIELKTDWVRFLA [RPN1]	1.49
IEKLTDGHLRAPLKHGV [BRR2]	2.86
RRRDGVFLYFEDNAGVI [RPL23A]	2.83
DALEMQWRYLYDTQLKV [ARP7]	1.55
RNTMMIQCQIDKLYIHF [RGR1]	2.15
LKEYQSKIIVFPRDGKA [RPL13B]	3.17
VKEYQLRDRNFSATGNF [RPL11A]	3.27
MKWSAIPFQTLYRSIES [YJL039C/NUP192]	1.91
QPSQQPQQAQQQPNPLH [GAL11]	2.95
PEREVLVRELYQWRDLI [RRP6]	2.78
FPNIAIRPTELRLPFSA [PRP8]	1.85
AGGEAGEAEAEKEEEEA [RPP1A]	3.47
KKSRSNLSQENDNEGKH [YAR002W/NUP60]	3.12
DPLLAGLGETSGDNHTQ [RPT4]	3.43
QAHEIVIPSYSKWFNLE [SWI3]	1.82
DTKLRLEKSKNECQRLQ [YIL149C/MLP2]	2.85
KAISVGANTSAAQTLLQ [PRE9]	2.92
TQVALNESEKDQWLEEY [UBP6]	2.55
QQSNKLHCCIQLLMGDI [RPN3]	1.99
RVKDIHLRKLLDGELDF [RET1]	2.93
KDHLLGRLASTIAKQVL [RPL16B]	1.57
VFLEFSLNFIPITASTS [YML103C/NUP188]	1.34
VKKPTFTFGQSTSENKI [YOR098C/NUP1]	2.87
TTLKSVTIASEIYYDPD [RPO21]	2.45
KEELLRDGVLTVTLNKN [RRP45]	2.11
ERLTNSLMMNGRNNGKK [RPS5]	3.02
HDIIEGINAGEIEIPEN [RPL12A]	2.52
PVENIWADIFAKALDGQ [RPP1A]	3.25
KLLATSTKIIMLLLNDS [SRB8]	1.46
LRLFNAPDSEYLCFILS [SNF2]	2.17
SGQLNFEIDGDVIHFED [PCI8]	2.83
VIDTLAAGYGKILGKGR [RPL28]	2.63
SLCTVWKPNPSYDVENV [SRB5]	2.03
IFLSKENSAVAAKEGLA [COR1]	2.19
EDFAPLLAEEEELILPN [PRP8]	3.38
NVSLIKIEGVATPQEAQ [RPL33B]	2.78
CEIHPSMILGVAASIIP [RPB2]	1.42
LENMPHPWEQAKEVKVL [PRP8]	2.9

* * *

ASSAY: protein stability index of a GFP-peptide fusion (yeast GPS) (PSI 1-4); higher = more stable; sorted into four equal gates, so the index is relative within each strain
TEST_SETTINGS: ubr1∆
PROPERTY_MEASURED: protein stability index

CHAIN_SEQUENCE	VALUE_OBSERVED
NRKVRAGRGFTLAEVKA [RPL13A]	2.48
RRFYKNWYKSKKKAFTK [RPL3]	1.78
TGNFIIPSGNVWNYTFM [PRP8]	3.18
RNVLSASLDGTIRLWEC [RPN14]	2.82

* * *

ASSAY: protein stability index of a GFP-peptide fusion (yeast GPS) (PSI 1-4); higher = more stable; sorted into four equal gates, so the index is relative within each strain
TEST_SETTINGS: ubr1∆
# protein stability index values compiled below

CHAIN_SEQUENCE	protein stability index
LFGEKSILGKFCPIVEE [YCS4]	1.73
ITHPGKMELVYVSDSDD [SIR4]	3.25
NKVSNTVSPTQDKDAIR [SIR2]	3.11
PEIGNRKINLFYLYMLV [SWI1]	2.22
TKSSLNDLDYDLIADTI [YML103C/NUP188]	2.52
QAPFSTSTKDKNSSTSN [MED1]	3.09
MEYLSGGEKTVAALALL [SMC1]	2.3
RSWNEPSKSQTNFKEEI [YML103C/NUP188]	3.11
